This collection of values is drawn from paper PMC9182188.

Assayed System: butyrylcholinesterase (Homo sapiens, UniProt P06276)
Construct: purchased Sigma-Aldrich
Sequence (P06276 29-602): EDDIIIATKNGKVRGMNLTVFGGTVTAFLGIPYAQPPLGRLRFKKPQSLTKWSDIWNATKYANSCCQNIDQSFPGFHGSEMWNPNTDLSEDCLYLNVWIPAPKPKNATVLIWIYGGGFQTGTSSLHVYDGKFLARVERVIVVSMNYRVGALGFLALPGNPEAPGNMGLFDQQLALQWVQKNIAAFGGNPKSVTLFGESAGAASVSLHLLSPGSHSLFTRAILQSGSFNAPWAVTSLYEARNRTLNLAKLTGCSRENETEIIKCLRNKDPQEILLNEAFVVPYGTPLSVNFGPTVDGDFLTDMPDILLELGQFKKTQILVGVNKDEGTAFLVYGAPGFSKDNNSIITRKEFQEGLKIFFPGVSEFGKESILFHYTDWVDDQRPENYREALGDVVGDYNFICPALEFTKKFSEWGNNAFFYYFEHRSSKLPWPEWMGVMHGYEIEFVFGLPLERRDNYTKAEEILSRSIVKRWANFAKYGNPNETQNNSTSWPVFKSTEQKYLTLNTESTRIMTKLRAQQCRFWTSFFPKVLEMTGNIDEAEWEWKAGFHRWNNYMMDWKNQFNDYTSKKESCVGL
Procedure Details: Butyrylcholinesterase inhibitory activity by HPLC-DAD (Ellman reaction product TNBA)
Type: biochemical
Reported Conditions: alkaloid standards, 0.2 U/mL enzyme, 15 min at 37 °C, pH 7.8, read-out: IC50 values Butyrylcholinesterae

Molecule | IC50 [µM]
COc1ccc2c(c[n+](C)c3c4cc5c(cc4ccc23)OCO5)c1OC [Chelerythrine, chelerythrine] | 2.15
C[n+]1cc2c3c(ccc2c2ccc4cc5c(cc4c21)OCO5)OCO3 [Sanguinarine, sanguinarine] | 9.82
